# assayed.target: T1, human PD-L1, his tagged (hPD-L1-his) (human, UniProt Q9NZQ7 19-238, limits assumed)
# T1 construct: also called huPD-L1-His; recombinant human PD-L1; not shown: his tag
# T1 sequence (Q9NZQ7 19-238 limits assumed): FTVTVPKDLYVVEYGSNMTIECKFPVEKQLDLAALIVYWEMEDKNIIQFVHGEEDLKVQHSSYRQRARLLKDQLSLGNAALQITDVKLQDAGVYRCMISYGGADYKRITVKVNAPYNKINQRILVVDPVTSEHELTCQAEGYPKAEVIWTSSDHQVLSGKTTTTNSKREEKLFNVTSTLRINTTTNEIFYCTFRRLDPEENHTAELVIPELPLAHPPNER
# assay: BLI (ForteBio Octet), hPD-L1-his
Each item that follows carries a reported pKd.
Units for pKd: none; it is -log10 of a concentration expressed in mol/L.

// worked examples, pKd included
h769-IF3 (humanized 769-hIgG1 variant) (antibody, V domains shown) VH: EVQLVQSGAEVKKPGATVKISCKVSGFNIKDTYMHWVQQAPGKGLEWMGLIDPANDNTIYAEKFQGRVTITADTSTDTAYMELSSLRSEDTAVYYCAREGYGGSYGEGYWGQGTLVTVSS VL: EIVMTQSPPTLSLSPGERVTLSCRASQSVSNDLSWYQQKPGQAPRLLIYYASIRFTGIPARFSGSGSGTDFTLTISSLQPEDFAVYYCQQDYNSPWTFGQGTKVEIK: 8.58
h769-tm3 (humanized 769-hIgG1 variant) (antibody, V domains shown) VH: EVQLVQSGAEVKKPGATVKISCKVSGFNIKDTYMHWVQQAPGKGLEWMGLIDPANDNTIYAEKFQGRVTITADTSTDTAYMELSSLRSEDTAVYYCAREGYGGSYGEGYWGQGTLVTVSS VL: EIVMTQSPPTLSLSPGERVTLSCRASQSVSNDLSWYQQKPGQAPRLLIYYASIRFTGIPARFSGSGSGTDFTLTISSLQPEDFAVYFCQQDYNSPWTFGQGTKVEIK: 8.53

# evaluate next
Incoming: Read off the recorded pKd for h769-tm2 (humanized 769-hIgG1 variant) (antibody, V domains shown) VH: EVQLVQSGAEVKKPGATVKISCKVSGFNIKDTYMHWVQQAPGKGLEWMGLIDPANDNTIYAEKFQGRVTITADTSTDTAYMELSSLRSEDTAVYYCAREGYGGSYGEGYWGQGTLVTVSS VL: EIVMTQSPPTLSLSPGERVTLSCRASQSVSNDLSWYQQKPGQAPRLLIYYASIRFTGIPARFSGSGYGTDFTLTISSLQPEDFAVYYCQQDYNSPWTFGQGTKVEIK
Outgoing: 8.61
